biological target: alkaline phosphatase (Bovine Milk) (Bos taurus, UniProt P09487); construct: Bovine Milk; from tissue; host or cells: bovine milk; assay: Alkaline phosphatase inhibition, Bovine Milk isoform; assay type: biochemical; conditions: no albumin, pH 10, read-out: IC50 (no albumin)
Sequence (P09487 18-499): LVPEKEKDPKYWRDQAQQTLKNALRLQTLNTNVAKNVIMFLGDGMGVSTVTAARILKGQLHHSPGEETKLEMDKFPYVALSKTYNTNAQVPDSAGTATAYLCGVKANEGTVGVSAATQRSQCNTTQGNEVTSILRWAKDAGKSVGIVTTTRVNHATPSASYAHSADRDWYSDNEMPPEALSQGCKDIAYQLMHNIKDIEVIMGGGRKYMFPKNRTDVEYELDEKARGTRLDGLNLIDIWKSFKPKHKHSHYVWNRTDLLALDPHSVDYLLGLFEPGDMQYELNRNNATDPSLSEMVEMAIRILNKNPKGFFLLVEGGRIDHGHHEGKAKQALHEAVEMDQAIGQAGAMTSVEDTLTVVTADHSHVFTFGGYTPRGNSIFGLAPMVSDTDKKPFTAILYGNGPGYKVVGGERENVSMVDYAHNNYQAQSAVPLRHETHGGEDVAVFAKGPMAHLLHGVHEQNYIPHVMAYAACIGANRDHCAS
measured_metric: IC50
Respond with the figure and its unit, in that order.

Query: If you can, please state the reported IC50 value of CC(C)(S)C(N)C(=O)NCC(=O)Nc1ccc(C(=O)O)c(O)c1 (stereo not shown) [Compound 1] .
Reply: 50 µM
